Biological target: WIZ protein (HiBit-WIZ fusion protein) (Homo sapiens, UniProt O95785+Q96SW2)
Construct: expressed in transfected cells
Sequence (O95785 whole entry, the tested form may be a part): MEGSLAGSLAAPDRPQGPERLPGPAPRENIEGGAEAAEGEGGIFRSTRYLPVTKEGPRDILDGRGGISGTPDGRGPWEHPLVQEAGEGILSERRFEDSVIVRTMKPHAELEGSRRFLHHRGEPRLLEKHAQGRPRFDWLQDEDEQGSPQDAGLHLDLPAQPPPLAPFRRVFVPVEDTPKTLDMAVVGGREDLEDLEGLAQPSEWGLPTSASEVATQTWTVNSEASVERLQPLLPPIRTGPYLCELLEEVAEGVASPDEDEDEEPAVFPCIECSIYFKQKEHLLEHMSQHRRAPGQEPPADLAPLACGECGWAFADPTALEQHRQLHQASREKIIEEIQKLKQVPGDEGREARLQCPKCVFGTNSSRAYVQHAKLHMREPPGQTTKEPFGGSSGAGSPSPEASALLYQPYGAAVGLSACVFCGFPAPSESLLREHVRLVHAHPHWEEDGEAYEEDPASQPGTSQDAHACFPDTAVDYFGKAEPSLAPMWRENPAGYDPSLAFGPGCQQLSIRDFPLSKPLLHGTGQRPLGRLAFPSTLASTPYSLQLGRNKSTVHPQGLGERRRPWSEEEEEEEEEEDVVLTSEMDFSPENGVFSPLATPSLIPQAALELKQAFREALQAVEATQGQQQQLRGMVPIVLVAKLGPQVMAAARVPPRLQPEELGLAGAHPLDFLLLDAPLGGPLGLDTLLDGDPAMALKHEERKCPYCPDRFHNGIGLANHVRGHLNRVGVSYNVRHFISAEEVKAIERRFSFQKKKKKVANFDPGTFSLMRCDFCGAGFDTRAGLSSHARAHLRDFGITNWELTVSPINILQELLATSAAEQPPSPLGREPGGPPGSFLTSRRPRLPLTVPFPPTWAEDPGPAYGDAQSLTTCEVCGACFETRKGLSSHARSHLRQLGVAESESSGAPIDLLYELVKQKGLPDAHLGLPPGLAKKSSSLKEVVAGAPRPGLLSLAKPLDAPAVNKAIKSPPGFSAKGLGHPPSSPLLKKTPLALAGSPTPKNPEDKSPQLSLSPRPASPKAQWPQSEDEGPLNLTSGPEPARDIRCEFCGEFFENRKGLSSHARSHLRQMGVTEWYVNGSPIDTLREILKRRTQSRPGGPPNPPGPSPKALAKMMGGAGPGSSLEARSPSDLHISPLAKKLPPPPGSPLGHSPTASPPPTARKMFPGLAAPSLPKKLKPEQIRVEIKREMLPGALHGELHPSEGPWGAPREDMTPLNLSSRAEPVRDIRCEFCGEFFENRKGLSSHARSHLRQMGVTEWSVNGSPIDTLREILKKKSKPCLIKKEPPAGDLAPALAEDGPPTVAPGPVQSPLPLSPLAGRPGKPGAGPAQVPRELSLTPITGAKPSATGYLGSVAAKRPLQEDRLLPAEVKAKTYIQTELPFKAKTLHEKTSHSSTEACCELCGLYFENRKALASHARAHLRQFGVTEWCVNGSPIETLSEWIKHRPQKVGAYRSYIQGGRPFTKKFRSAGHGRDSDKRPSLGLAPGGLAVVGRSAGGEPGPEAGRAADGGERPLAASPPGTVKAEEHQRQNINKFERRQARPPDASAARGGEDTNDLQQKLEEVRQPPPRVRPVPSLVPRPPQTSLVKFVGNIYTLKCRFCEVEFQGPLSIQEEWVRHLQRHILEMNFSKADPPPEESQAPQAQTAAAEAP
Sequence (Q96SW2 whole entry, the tested form may be a part): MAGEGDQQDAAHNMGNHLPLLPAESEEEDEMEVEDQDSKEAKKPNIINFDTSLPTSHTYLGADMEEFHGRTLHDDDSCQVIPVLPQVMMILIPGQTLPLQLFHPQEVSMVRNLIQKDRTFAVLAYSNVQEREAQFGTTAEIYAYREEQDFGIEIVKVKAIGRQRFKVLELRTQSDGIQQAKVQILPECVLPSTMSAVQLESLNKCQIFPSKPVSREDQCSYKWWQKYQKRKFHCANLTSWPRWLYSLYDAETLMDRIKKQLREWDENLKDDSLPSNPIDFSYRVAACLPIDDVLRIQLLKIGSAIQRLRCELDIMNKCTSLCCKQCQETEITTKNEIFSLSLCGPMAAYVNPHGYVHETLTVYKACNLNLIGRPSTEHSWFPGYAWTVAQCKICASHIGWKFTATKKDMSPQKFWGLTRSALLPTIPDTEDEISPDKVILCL
Sequence (Q16531 whole entry partner, the tested form may be a part): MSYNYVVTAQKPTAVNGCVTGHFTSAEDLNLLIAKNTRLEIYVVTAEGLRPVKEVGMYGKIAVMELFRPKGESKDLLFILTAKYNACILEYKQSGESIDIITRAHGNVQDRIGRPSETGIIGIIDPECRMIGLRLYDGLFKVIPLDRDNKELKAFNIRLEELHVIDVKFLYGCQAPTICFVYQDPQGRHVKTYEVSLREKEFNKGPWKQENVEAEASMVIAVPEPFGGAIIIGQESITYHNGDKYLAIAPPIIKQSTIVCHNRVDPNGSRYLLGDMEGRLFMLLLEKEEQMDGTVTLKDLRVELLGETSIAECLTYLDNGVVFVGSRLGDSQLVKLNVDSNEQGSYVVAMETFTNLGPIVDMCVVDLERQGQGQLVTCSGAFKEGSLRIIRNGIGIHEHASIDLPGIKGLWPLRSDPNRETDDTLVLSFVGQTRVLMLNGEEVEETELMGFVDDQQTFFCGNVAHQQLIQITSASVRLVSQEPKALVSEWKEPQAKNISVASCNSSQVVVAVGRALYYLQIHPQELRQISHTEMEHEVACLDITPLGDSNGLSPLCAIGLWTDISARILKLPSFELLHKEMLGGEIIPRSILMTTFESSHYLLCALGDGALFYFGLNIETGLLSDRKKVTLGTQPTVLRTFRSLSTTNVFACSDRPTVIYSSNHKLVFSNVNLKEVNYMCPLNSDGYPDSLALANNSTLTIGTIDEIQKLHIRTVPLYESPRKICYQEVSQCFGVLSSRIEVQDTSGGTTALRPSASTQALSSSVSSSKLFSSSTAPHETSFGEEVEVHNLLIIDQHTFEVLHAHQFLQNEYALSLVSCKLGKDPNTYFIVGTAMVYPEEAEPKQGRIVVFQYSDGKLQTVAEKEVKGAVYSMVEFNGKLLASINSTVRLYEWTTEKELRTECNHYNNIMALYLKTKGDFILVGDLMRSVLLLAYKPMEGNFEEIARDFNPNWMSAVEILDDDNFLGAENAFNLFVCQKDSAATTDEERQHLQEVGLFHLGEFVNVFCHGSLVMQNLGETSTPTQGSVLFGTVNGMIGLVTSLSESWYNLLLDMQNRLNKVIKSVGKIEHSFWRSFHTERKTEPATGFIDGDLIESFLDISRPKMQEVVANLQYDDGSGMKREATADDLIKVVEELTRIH
Assay: Quantification of WIZ protein levels in HiBit tag fusion protein assay (WIZ HiBit assay in 293T cells)
Assay type: cell-based
Details: HEK-293T, 100 − Amax, at 25 uM; 293T cells; read-out: % degradation of WIZ (100 − Amax)
MEASURE: Dmax at 25 µM (%)
State just the number; it will be interpreted in %.

1) CC(C)S(=O)(=O)N1C[C@@H]2C[C@H]1CN2Cc1ccn2ncc(N3CCC(=O)NC3=O)c2c1 [Example 238]    19
2) C[C@H]1C[C@H](Cc2ccn3ncc(N4CCC(=O)NC4=O)c3c2)CCN1S(=O)(=O)N(C)C [Example 292]    83
3) C[C@@H]1C[C@H](Cc2ccn3ncc(N4CCC(=O)NC4=O)c3c2)CCN1CC1CCC(F)(F)CC1 [Example 78]    83
4) CC(c1cccc(F)c1)N1CCC(Cc2ccn3ncc(N4CCC(=O)NC4=O)c3c2)CC1 (stereo not shown) [Example 48]    68
5) O=C1CCN(c2cnn3ccc(CC4CCN(S(=O)(=O)C5CCCCC5)CC4)cc23)C(=O)N1 [Example 81]    92

Incoming: GET Dmax at 25 µM where system = WIZ protein (HiBit-WIZ fusion protein) (Homo sapiens, UniProt O95785+Q96SW2) and item = C[C@H]1CN(Cc2ccn3ncc(N4CCC(=O)NC4=O)c3c2)CCN1CC1CC2(C1)CC(F)(F)C2 [Example 326]
Outgoing: 87

Incoming: GET Dmax at 25 µM where system = WIZ protein (HiBit-WIZ fusion protein) (Homo sapiens, UniProt O95785+Q96SW2) and item = C[C@H]1C[C@H](Cc2ccn3ncc(N4CCC(=O)NC4=O)c3c2)CCN1CC1CCC(C)(C)CC1 [Example 149]
Outgoing: 90

* * *

Target: WIZ protein (HiBit-WIZ fusion protein) (Homo sapiens, UniProt O95785+Q96SW2)
Construct: expressed in transfected cells
Experiment: Quantification of WIZ protein levels in HiBit tag fusion protein assay (WIZ HiBit assay in 293T cells)
Type: cell-based
Conditions: WIZ HiBit assay in 293T cells; 10-point, 5-fold dose response, highest concentration 25 μM, about 18 hours; read-out: WIZ AC50
MEASURE: DC50
Give the value; after it, write the unit.

1. C[C@@H]1CN(CC2CCCCC2)CCN1Cc1ccn2ncc(N3CCC(=O)NC3=O)c2c1 [Example 218]    0.068 µM
2. O=C1CCN(c2cnn3ccc(CC4CCN(CCC5CCCCC5)CC4)cc23)C(=O)N1 [Example 6]    0.013 µM
3. CC(C)CN1CCC(F)(Cc2ccn3ncc(N4CCC(=O)NC4=O)c3c2)CC1 [Example 124]    0.502 µM

Okay, next one:
Incoming: Tell me DC50 reported for CC(c1cccnc1)N1CCC(Cc2ccn3ncc(N4CCC(=O)NC4=O)c3c2)CC1 (stereo not shown) [Example 21]
Outgoing: 0.025 µM

* * *

Biological target: WIZ protein (HiBit-WIZ fusion protein) (Homo sapiens, UniProt O95785+Q96SW2)
Construct: expressed in transfected cells
Assay: Quantification of WIZ protein levels in HiBit tag fusion protein assay (WIZ HiBit assay in 293T cells)
Assay type: cell-based
Conditions: HEK-293T, DMSO-normalized, curve-fitted percentage of WIZ-HiBit remaining at 25 uM; 293T cells; read-out: WIZ Amax
Method: The HiBit system from Promega was used to develop high-throughput and quantitative assays to measure changes in WIZ protein levels in response to compounds. […] The complementary fragment of Nanoluciferase (known as LgBit, from Promega), was added to the HiBit tag to form an active Nanoluciferase enzyme whose activity can be precisely measured. In this way, the levels of a fusion protein with the HiBit tag can be quantified in cell lysates. […]
Measured remaining activity at 25 µM, listed per entry for reference.
State just the number; it will be interpreted in %.

Recorded remaining activity at 25 µM, per entry:
1. C[C@@H]1C[C@@H](Cc2ccn3ncc(N4CCC(=O)NC4=O)c3c2)CCN1CC1CCC(F)(F)CC1    15
2. C[C@@H]1CC(CN2CCN(Cc3ccn4ncc(N5CCC(=O)NC5=O)c4c3)C[C@@H]2C)C[C@H](C)O1 (stereo partly shown)    14
3. C[C@H]1C[C@H](Cc2ccn3ncc(N4CCC(=O)NC4=O)c3c2)CCN1CCC1CCOCC1    14
4. C[C@H]1CN(Cc2ccn3ncc(N4CCC(=O)NC4=O)c3c2)C[C@H](C)N1CC1CCCCC1    31
5. O=C1CCN(c2cnn3ccc(CC4CCN(S(=O)(=O)CC5CC5)CC4)cc23)C(=O)N1    13
6. C[C@H]1CN(Cc2ccn3ncc(N4CCC(=O)NC4=O)c3c2)CCN1CC(F)F    46

Incoming: Tell me remaining activity at 25 µM reported for `CCC(CC)N1CCN(Cc2ccn3ncc(N4CCC(=O)NC4=O)c3c2)CC1`
Outgoing: 31

Incoming: Tell me remaining activity at 25 µM reported for `Cn1cnc(CN2CCC(Cc3ccn4ncc(N5CCC(=O)NC5=O)c4c3)CC2)c1`
Outgoing: 61

Incoming: Tell me remaining activity at 25 µM reported for `O=C1CCN(c2cnn3ccc(CC4CCN(CC5CCCCCC5)CC4)cc23)C(=O)N1`
Outgoing: 14

Incoming: Tell me remaining activity at 25 µM reported for `CC(C)CN1CCN(Cc2ccn3ncc(N4CCC(=O)NC4=O)c3c2)CC1(C)C`
Outgoing: 60

Incoming: Tell me remaining activity at 25 µM reported for `C[C@H]1CN(Cc2ccn3ncc(N4CCC(=O)NC4=O)c3c2)CCN1C(=O)C1CCCCC1`
Outgoing: 63

Incoming: Tell me remaining activity at 25 µM reported for `O=C1CCN(c2cnn3ccc(CC4CCN(Cc5ccc(F)cc5F)CC4)cc23)C(=O)N1`
Outgoing: 34

Where do the numbers come from? From patent US11787785B2.
